The reader will find reported pIC50 values listed item by item below.
# measurement target: Syk catalytic domain (aa 356-635 with a C-terminal His-tag) (Homo sapiens)
# Construct: His-tag (C); made in house
# protocol notes: In vitro Syk kinase activity measured by trFRET, Syk catalytic domain
# Assay type: biochemical
# stated conditions: Syk catalytic domain (aa 356-635), trFRET, 0.001 mM ATP
pIC50: −log10 of the molar value.

Look over these answered cases.
- molecule: "Cn1ncc2cnc3[nH]c(-c4cccc(S(=O)(=O)NCCO)c4)cc3c21"
  measurement target: "Syk catalytic domain (aa 356-635 with a C-terminal His-tag) (Homo sapiens)"
  pIC50: "> 7.00"
- molecule: "CC(C)(O)c1ccc(-c2nc(C3CC[C@H](NS(=O)(=O)C4CC4)C3)n3c2cnc2[nH]ccc23)cc1 (stereo partly drawn)"
  measurement target: "Syk catalytic domain (aa 356-635 with a C-terminal His-tag) (Homo sapiens)"
  pIC50: "> 7.00"
- molecule: "CCc1c(-c2ccc(C(C)(C)O)cc2)[nH]c2ncc3cnn(C)c3c12"
  measurement target: "Syk catalytic domain (aa 356-635 with a C-terminal His-tag) (Homo sapiens)"
  pIC50: "> 7.00"

Query :: Quick check: pIC50 of "CCc1c(-c2cccc(S(C)(=O)=O)c2)[nH]c2ncc3cnn(C)c3c12" ?
Result :: 6.00 to 7.00

Query :: # query: pIC50 of entry "Cc1ncc2cnc3[nH]c(-c4cnn(C)c4)cc3n12"
Result :: 6.00 to 7.00
